The origin of these recorded values is ChEMBL document CHEMBL1275277.

Tested on: Rattus norvegicus
Assay Name: Acute toxicity in sc dosed albino rat
Format: organism-based
Study Conditions: in vivo
Answer each item with its documented log10 LD50.
Base-10 log of LD50, unit mg/kg.

Ask | Check the records and state log10 LD50 for CCN1C/C(=C\c2ccc(C)cc2)c2nc3[nH]c(=S)[nH]c(=O)c3c(-c3ccc(C)cc3)c2C1
Reply | -0.35

Ask | Check the records and state log10 LD50 for CCN1CC2=C(N=C3N(c4ccc(Cl)cc4)N=C(C(C)=O)N3C2c2ccc(C)cc2)/C(=C/c2ccc(C)cc2)C1 (centres undefined)
Reply | -0.51

Ask | Check the records and state log10 LD50 for CCOC(=O)C1=NN(c2ccc(C)cc2)C2=NC3=C(CN(CC)C/C3=C\c3ccc(C)cc3)C(c3ccc(C)cc3)N12 (centres undefined)
Reply | -0.65

Ask | Check the records and state log10 LD50 for CCN1C/C(=C\c2ccc(C)cc2)c2nc3nc4n(c(=O)c3c(-c3ccc(C)cc3)c2C1)C(=O)CS4
Reply | -0.29

Ask | Check the records and state log10 LD50 for CCN1CC2=C(N=C3N(c4ccccc4)N=C(C(C)=O)N3C2c2ccc(C)cc2)/C(=C/c2ccc(C)cc2)C1 (centres undefined)
Reply | -0.59

Ask | Check the records and state log10 LD50 for CCN1CC2=C(N=C3N(c4ccccc4)N=C(C(=O)Nc4ccccc4)N3C2c2ccc(C)cc2)/C(=C/c2ccc(C)cc2)C1 (centres undefined)
Reply | 0.82

Ask | Check the records and state log10 LD50 for CCN1CC2=C(N=C3N(c4ccc(C)cc4)N=C(C(=O)Nc4ccccc4)N3C2c2ccc(C)cc2)/C(=C/c2ccc(C)cc2)C1 (centres undefined)
Reply | -0.63

Ask | Check the records and state log10 LD50 for CCN1CC2=C(NC(=S)NC2c2ccc(C)cc2)/C(=C/c2ccc(C)cc2)C1 (centres undefined)
Reply | -0.65

Ask | Check the records and state log10 LD50 for CC(C)(C#N)c1cc(Cn2cncn2)cc(C(C)(C)C#N)c1 [ANASTROZOLE]
Reply | -2.62

----------
Tested on: Rattus norvegicus
Assay Name: Acute toxicity in sc dosed albino rat
Type: organism-based
Study Conditions: in vivo
Answer each item with its documented LD90.
Write down the numeric answer in mg/kg and omit the unit.

Ask | Check the records and state LD90 for CCN1C/C(=C\c2ccc(C)cc2)c2nc3[nH]c(=S)[nH]c(=O)c3c(-c3ccc(C)cc3)c2C1
Reply | 0.93734

Ask | Check the records and state LD90 for CCN1CC2=C(N=C3N(c4ccccc4)N=C(C(C)=O)N3C2c2ccc(C)cc2)/C(=C/c2ccc(C)cc2)C1 (centres undefined)
Reply | 0.41923

Ask | Check the records and state LD90 for CC(C)(C#N)c1cc(Cn2cncn2)cc(C(C)(C)C#N)c1
Reply | 0.00369

Ask | Check the records and state LD90 for CCN1CC2=C(N=C3N(c4ccc(C)cc4)N=C(C(=O)Nc4ccccc4)N3C2c2ccc(C)cc2)/C(=C/c2ccc(C)cc2)C1 (centres undefined)
Reply | 0.41734

----------
System: Rattus norvegicus
Assay Name: Inhibition of 5-alpha-reductase activity in sc dosed Sprague-Dawley rat assessed as effect on serum steroid level administered on postnatal third day measured after 7 weeks of age by radioimmunoassay relative to anastrozole
Type: functional
Answer each item with its documented fold change (FC).
Just the number.

Ask | Fill in fold change (FC) for CCOC(=O)C1=NN(c2ccc(Cl)cc2)C2=NC3=C(CN(CC)C/C3=C\c3ccc(C)cc3)C(c3ccc(C)cc3)N12 (centres undefined) tested with Rattus norvegicus.
Reply | 2.472

Ask | Fill in fold change (FC) for CCN1CC2=C(N=C3N(c4ccccc4)N=C(C(C)=O)N3C2c2ccc(C)cc2)/C(=C/c2ccc(C)cc2)C1 (centres undefined) tested with Rattus norvegicus.
Reply | 1.196

Ask | Fill in fold change (FC) for CCN1C/C(=C\c2ccc(C)cc2)c2nc3nc4n(c(=O)c3c(-c3ccc(C)cc3)c2C1)C(=O)CS4 tested with Rattus norvegicus.
Reply | 1.423

Ask | Fill in fold change (FC) for CCN1CC2=C(N=C3N(c4ccc(C)cc4)N=C(C(=O)Nc4ccccc4)N3C2c2ccc(C)cc2)/C(=C/c2ccc(C)cc2)C1 (centres undefined) tested with Rattus norvegicus.
Reply | 1.178

Ask | Fill in fold change (FC) for CCN1CC2=C(NC(=S)NC2c2ccc(C)cc2)/C(=C/c2ccc(C)cc2)C1 (centres undefined) tested with Rattus norvegicus.
Reply | 0.5798

Ask | Fill in fold change (FC) for CCN1CC2=C(N=C3N(c4ccc(Cl)cc4)N=C(C(C)=O)N3C2c2ccc(C)cc2)/C(=C/c2ccc(C)cc2)C1 (centres undefined) tested with Rattus norvegicus.
Reply | 1.273

Ask | Fill in fold change (FC) for CCOC(=O)C1=NN(c2ccc(C)cc2)C2=NC3=C(CN(CC)C/C3=C\c3ccc(C)cc3)C(c3ccc(C)cc3)N12 (centres undefined) tested with Rattus norvegicus.
Reply | 1.09

Ask | Fill in fold change (FC) for CCN1C/C(=C\c2ccc(C)cc2)c2nc3[nH]c(=S)[nH]c(=O)c3c(-c3ccc(C)cc3)c2C1 tested with Rattus norvegicus.
Reply | 1.371

Ask | Fill in fold change (FC) for CCN1CC2=C(N=C3N(c4ccccc4)N=C(C(=O)Nc4ccccc4)N3C2c2ccc(C)cc2)/C(=C/c2ccc(C)cc2)C1 (centres undefined) tested with Rattus norvegicus.
Reply | 2.523
